Provide the recorded Growth Rate for the entries that follow.
Test system: U2OS
Test Details: Incucyte cell viability with U2OS; note: unitless GR value; below 1 slowed growth and below 0 cell loss
Format: toxicity, cell-based
Measurement Parameters: human, 6 h, 10 µM, compound concentration 10 uM, replicate number 1
One number for each entry.

A selection of reference data follows.
# Molecule, Measured On, Recorded Measurement
rows = [
    ("CN(C)C(=O)Cn1cc(-c2ccc(-c3nnc4ccccn34)cc2)cn1", "U2OS", 0.9),
    ("CC(=O)N(CCN(C)C)c1ccc(N/C(=C2\\C(=O)Nc3cc(Cl)ccc32)c2ccccc2)cn1", "U2OS", -0.35),
    ("CCc1cc2c(cc1N1CCC(N3CCOCC3)CC1)C(C)(C)c1[nH]c3cc(C#N)ccc3c1C2=O", "U2OS", 0.77),
    ("Cc1nnc2n1-c1sc3c(c1C(c1ccccc1Cl)=NC2)C[C@@H](C(=O)N1CCOCC1)C3", "U2OS", 0.49),
    ("O=C(NC1CCNCC1)c1n[nH]cc1NC(=O)c1c(Cl)cccc1Cl", "U2OS", 0.44),
]

Could you tell me Growth Rate for each of these molecules? They are listed below.
1. Cc1cc(C)nc(Nc2ncc(C(=O)NCCc3c(C)[nH]c4ccccc34)cn2)c1.Cl
2. CC(C)n1nc(-c2cnc(N)c(OC(F)(F)F)c2)cc1[C@H]1[C@@H]2CN(C3COC3)C[C@@H]21
3. O=C(O)c1cc(F)c2nc(N3[C@@H]4CC[C@H]3C[C@@H](OCc3c(-c5ccccc5OC(F)(F)F)noc3C3CC3)C4)sc2c1 [TROPIFEXOR]
4. Cc1ccc(C(=O)Nc2cc(N3CCN(C)CC3)cc(C(F)(F)F)c2)cc1-n1cc(-c2cnn(C)c2C)nn1.Cl

1: 0.56; 2: 0.76; 3: 0.63; 4: 0.35
